Known activity at 3300 µM of a selection of molecules
STUDY TARGET: glutaminase (brain membranes) (Rattus norvegicus, UniProt P13264)
Construct: Membranes are prepared by homogenization of brain tissue in 330 mM sucrose; from tissue; host or cells: rat brain, crude membranes (17000 G pellet)
Sequence (P13264 73-674 limits assumed): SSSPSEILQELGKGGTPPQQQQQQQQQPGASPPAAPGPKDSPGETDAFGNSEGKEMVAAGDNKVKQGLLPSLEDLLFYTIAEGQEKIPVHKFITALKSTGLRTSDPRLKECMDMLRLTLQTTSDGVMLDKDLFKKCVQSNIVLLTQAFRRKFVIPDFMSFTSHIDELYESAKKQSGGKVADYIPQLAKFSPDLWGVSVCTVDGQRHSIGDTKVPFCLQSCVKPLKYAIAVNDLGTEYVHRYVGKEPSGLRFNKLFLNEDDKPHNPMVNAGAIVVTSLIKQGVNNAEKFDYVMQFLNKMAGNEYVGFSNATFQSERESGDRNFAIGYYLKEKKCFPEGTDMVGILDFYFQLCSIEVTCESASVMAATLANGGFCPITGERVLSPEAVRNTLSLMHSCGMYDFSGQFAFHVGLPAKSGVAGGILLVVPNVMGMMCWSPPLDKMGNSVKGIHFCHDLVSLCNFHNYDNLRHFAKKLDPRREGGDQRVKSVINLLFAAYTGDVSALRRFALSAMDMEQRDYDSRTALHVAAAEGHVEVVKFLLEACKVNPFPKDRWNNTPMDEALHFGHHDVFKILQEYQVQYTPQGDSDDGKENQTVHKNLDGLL
ASSAY NOTES: biochemical
CONDITION: read-out: Glutaminase Activity
Residues, ends and D or L forms follow the SMILES beside them.
QUANTITY KIND: activity at 3300 µM

| MOLECULE | RESULT |
| --- | --- |
| NCC(=O)NC(CC(F)C(=O)O)C(=O)O (centres unmarked) [glycyl-4-fluoroglutamate, Glycyl-4-fluoroglutamate] | 55% |
| NC(CC(=O)O)CC(=O)O [β-glutamic acid] | 84% |
| CC(C)[C@H](NC(=O)[C@@H](N)CCC(=O)O)C(=O)O [Glu--Val] (H-Glu-Val-OH) | 122% |
| CC(=O)NC(CCC(=O)O)C(=O)O (racemic) [N-acetyl-DL-glutamate] | 92% |
| CC(C)(C)OC(=O)NCC(=O)NC(CC(F)C(=O)O)C(=O)O (centres unmarked) [BOC-glycyl-4-fluoroglutamate] | 52% |
| CC(C)[C@H](N)C(=O)N[C@@H](CCC(=O)O)C(=O)O [Val--Glu] (H-Val-Glu-OH) | 114% |
| C[C@H](CC(=O)O)[C@H](N)C(=O)O (relative stereo) [(±)-threo-3-methylglutamate] | 91% |
| NCC(=O)N[C@@H](CCC(=O)O)C(=O)O [Gly--Glu] (H-Gly-Glu-OH) | 94% |
